assay: method code SF, from DOI: 10.1016/0006-2952(79)90429-5, PMID: 444298

compoundStructure: O=NN(CCCl)C(=O)N[C@@H]1O[C@H](CO)[C@@H](O)[C@H](O)[C@H]1O
logP: -1.02

* * *

test: method code SF-HPLC, from DOI: 10.1016/j.ejps.2013.10.002, PMID: 24161609

compoundStructure: O=C(O)/C=C/C(=O)O
logP: -0.04

* * *

Listing of recorded logP by entry.
propertyMeasured: logP

compoundStructure: CCOP(=O)(Sc1ccccc1)Sc1ccccc1
measuredValue: 3.68
//
compoundStructure: CC(C)OP(=O)(OC(C)C)SCc1ccccc1
measuredValue: 3.43

* * *

Listing of recorded logD by entry.
experiment: method code SF-AS, from DOI: 10.1016/j.bmc.2007.10.035, PMID: 18029186; settings: pH 7.4

compound: CC(=O)OCC1OC(OCCN(C)C(=O)n2ccnc2[N+](=O)[O-])C(OC(C)=O)C(OC(C)=O)C1OC(C)=O (configuration not stated)
logD: -0.98
//
compound: CC(=O)NC1C(OCCN(C)C(=O)Cn2ccnc2[N+](=O)[O-])OC(COC(C)=O)C(OC(C)=O)C1OC(C)=O (configuration not stated)
logD: -1.29

* * *

assay: method code SF-HPLC, from DOI: 10.1016/s0045-6535(01)00105-9, PMID: 11695583
propertyMeasured: logP

compoundStructure: Brc1ccc(Br)c(Br)c1Br
measuredValue: 5

* * *

propertyMeasured: logP

molecule: COc1cc(CN2C(=O)N(Cc3cccc(C(=O)Nc4cnc(C)cn4)c3)C(Cc3ccccc3)C(O)C(O)C2Cc2ccccc2)cc(OC)c1 (stereo unspecified)
measuredValue: 5.59

* * *

compoundStructure: CO[C@@H]([C@H](O)[C@H](O)CO)[C@@H](O)C=O
logP: -3

* * *

compoundStructure: Cc1cccc(C)n1
logP: 1.63

compoundStructure: CCCCC(C)=O
logP: 1.39

* * *

assay: method code SF-HPLC, from DOI: 10.1007/bf00269028, PMID: 6488439

molecule: Cc1c[nH]c(=O)[nH]c1=O
logP: -0.57

molecule: Nc1ccn([C@@H]2O[C@@H]3CO[C@H]2[C@@H]3O)c(=O)n1
logP: -1.64

molecule: Nc1ccn(C2OC(CCl)C(O)C2O)c(=O)n1 (centres undefined)
logP: -1.05

molecule: Nc1cc[nH]c(=O)n1
logP: -1.49

* * *

Listing of recorded logP by entry.

compoundStructure: O=[N+]([O-])c1cccc(O)c1
logP: 1.88
//
compoundStructure: Clc1ccccc1
logP: 2.73
//
compoundStructure: N#Cc1ccccc1[N+](=O)[O-]
logP: 1.16
//
compoundStructure: N#Cc1ccc([N+](=O)[O-])cc1
logP: 1.25

* * *

experiment: method code G-HPLC, from He, Y.; Zhao, Y.; Wang, L.; An, F.; Mo, H.; Yang, K.; Liu, Y.; Yu, G.; Xu, X. (1994). Determination of n-octanol/water partition coefficient of organic compound. Huanjing Huaxue, 13(3)195-197.

compoundStructure: Clc1ccccc1Cl
logP: 3.34

* * *

Listing of recorded logD by entry.
test: method code SF-HPLC, from DOI: 10.1021/jm030477w, PMID: 15084119; conditions: pH 7.4

compoundStructure: FCCNc1ccc(-c2cn3cc(I)ccc3n2)cc1
logD: 4.41

compoundStructure: FCCCNc1ccc(-c2cn3cc(I)ccc3n2)cc1
logD: 4.6
